biological target: GCase (GBA) in human fibroblast cell line GM10915 harboring the L444P GBA mutation (Homo sapiens, UniProt P04062, L483P); construct: Human fibroblast cell line GM10915 harboring the L444P GBA mutation; host or cells: GM10915 human fibroblasts; assay: GCase activity assay (4-MUG substrate, normalised to crystal violet staining) in L444P GBA fibroblasts; format: cell-based; conditions: concentration giving 150% GCase activity (1.5-fold induction), 5 days exposure, 8-point dose range
Sequence (P04062 40-536 L483P): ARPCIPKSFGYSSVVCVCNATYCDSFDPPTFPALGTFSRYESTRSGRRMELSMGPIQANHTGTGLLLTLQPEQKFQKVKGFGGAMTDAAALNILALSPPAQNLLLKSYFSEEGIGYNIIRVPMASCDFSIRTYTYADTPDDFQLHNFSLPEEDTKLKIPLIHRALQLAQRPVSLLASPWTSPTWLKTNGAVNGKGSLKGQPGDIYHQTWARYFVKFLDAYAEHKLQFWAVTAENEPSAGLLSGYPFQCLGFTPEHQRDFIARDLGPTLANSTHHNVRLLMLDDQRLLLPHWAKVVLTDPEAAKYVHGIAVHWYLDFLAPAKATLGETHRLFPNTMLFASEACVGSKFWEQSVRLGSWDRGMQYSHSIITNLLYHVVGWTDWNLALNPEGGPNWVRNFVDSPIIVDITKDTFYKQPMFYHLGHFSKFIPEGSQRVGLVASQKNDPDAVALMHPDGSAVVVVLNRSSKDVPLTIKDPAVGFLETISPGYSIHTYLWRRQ
REPORTED METRIC: GBA EC1.5 (µM)
Numbers only, in µM.

Take a look at these entries with their results.
C1CCN(CC2CON=C(C34CNC(C3)C4)O2)CC1 (racemic) [compound 527]; 26
c1cnn(C2(C3=NOCC(CN4CCCCC4)O3)CCNCC2)c1 (stereo not shown) [compound 848]; 2
C1CCN(CCC2=NOC[C@H](CN3CCCCC3)O2)CC1 [compound 891]; 15
COc1ccc(C2(C3=NOCC(CN4CCCCC4)O3)CCNCC2)nc1 (stereo not shown) [compound 852]; 4

I have 2 compounds here; please give me GBA EC1.5 for each one.
1. CC(N)C(=O)N1CCC(C2=NOCC(CN3CCCCC3)O2)C1 (racemic) [compound 691]
2. COC1CN(C)CC1C1=NOCC(CN2CCCCC2)O1 (racemic) [compound 821]

A:
[25, 29]
